For each of the sequences below, state its protein stability index.
Assay Method Text: protein stability index of a GFP-peptide fusion (GPS, HEK-293T) (PSI 1-6); higher = more stable;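 note: 24-mer peptide tiles fused after GFP, lentivirally expressed, FACS-sorted into six equal bins by GFP/DsRed ratio, decoded by Illumina sequencing, PSI is the read-weighted mean bin number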
Measurement Context: treatment: MLN4924 1 uM, 8 h; c terminus: a fixed tail appended
Answers are plain numbers.

1. KRPAWGSRRFEAVGWWALLALVTL [POMT2]; 2.29
2. GKGFRDRNVTGTPLTGDKDDEEVD [ADAMTSL2]; 5.51
3. PCSFVCWYRPMYKAFRSDSSFNFF [SCAMP3]; 2.6

Go through the list and state protein stability index for each entry.
1. EPSELDNPFQDPAVIQHRPSRQYA [SCAMP3]
2. PPQSPQGASSLPTTMNYPLWSQSY [MAGEA3]
3. QKNFNNLYGTKGNYTSRVWEYSSS [TRIM29]
4. SGGRGPQGDKAIREQGPREQEPEL [PBXIP1]
5. FKPKLYKGDRGLPLEGSAKGKVQA [RBBP5]
6. RAVLKYLYTGELDENERDLMHIAH [RHOBTB2]

-- reply
1. 4.77
2. 3.47
3. 2.51
4. 5.5
5. 3.98
6. 2.49

----------
For each of the sequences below, state its protein stability index.
Assay Method Text: protein stability index of a GFP-peptide fusion (GPS, HEK-293T) (PSI 1-6); higher = more stable
Measurement Context: treatment: MLN4924 1 uM, 8 h; c terminus: a fixed tail appended
Answers are plain numbers.

// solved cases for protein stability index follow
1. MDMDQDSEEEKELYLNLALHLASD [PDS5B]; 4.04
2. GSYGGFASAPTTPCQKSPNGVRVF [TRIM9]; 3.25
3. LKSELGRKWHKASNYIFVAIFWIV [P2RY14]; 2.31
4. RPKLSEEQQRIIAILLDAHHKTYD [VDR]; 2.75
5. GSLDNAHHVPGGGNVKIDSQKLNF [MAP2]; 4.43
6. KFLASHFPNRTDQQCQYRWLRVLN [MYBL2]; 2.2

Go through the list and state protein stability index for each entry.
1. MDLMVEVSPRRIFANGHTYHINSI [PPP2R2C]
2. LEPAQRPPLSHIMAQPLCIRALLN [NEK8]
3. DPGLGEGPALWLRSTCVYVCALSA [PLEKHN1]
4. LGCQGAQFVSSVPRCDLVDLGEGK [FAM189A2]
5. EDDAQSRRDEQDDDDKGDSKETRL [GOLPH3]
6. SVDIVSSHWDLNHTHPSACQGQRL [PLD5]
7. FGGQDENKQTLSSGEKYDPDANTW [GAN]

-- reply
2.8
3.48
2.09
4.18
5.66
3.82
5.01

----------
Assay Method Text: protein stability index of a GFP-peptide fusion (GPS, HEK-293T) (PSI 1-6); higher = more stable
Measurement Context: treatment: DMSO; c terminus: a fixed tail appended
Assign class by protein stability index: not lower than 3 means true (1); lower than 3 means false (0).

1) NVLVDPSARIGQNCSIGPNVSLGP [GMPPB]; true (1)

-- ask Exam item: decide whether the reported protein stability index for VGYTTLVGNNHESWGWDLGRNRLY [SPSB1] is at least 3.
-- reply false (0)

-- ask What do you have for TTSPNVLWPTPGHLSPLVVHRQLS [ESR2] ?
-- reply false (0)

----------
For each of the sequences below, state its protein stability index.
Assay Method Text: protein stability index of a GFP-peptide fusion (GPS, HEK-293T) (PSI 1-6); higher = more stable
Measurement Context: treatment: DMSO; c terminus: a fixed tail appended
Answers are plain numbers.

1) APLQADLTEQVWKVQDALQNQSDS [SCARA5]; 5.26
2) GELSQARGQEPARADQLCQQELRE [PRPH]; 5.26
3) QHQNKSPPKVKAEDGMQCLQLKET [DLC1]; 5.17
4) SHWDLNHTHPSACQGQRLFEKLLQ [PLD5]; 2.56
5) VTQNSTAEPSRFSSSDSDFDDEEP [FCHO1]; 5.52
6) VVDKETDNMYRLAHFSPFLYYQSQ [PDZK1]; 2.62
7) RLFTQLKFGVVQTSVEECSQKGCL [CLCN6]; 2.29
8) SPQEDGQIMFDVEMHTSRDHSSQS [BNIP3L]; 5.21
9) PSEDIWKKFELVPSPPTSPPWGLG [MYCL]; 3.04
10) YQKILAGKIDFPRHLDFHVKDLIK [PRKX]; 2.19

Go through the list and state protein stability index for each entry.
1. PEFVAPEIVNYEPLGLEADMWSIG [DAPK3]
2. YTCHECGDSFSHSSNRIRHLRTHT [ZNF263]

-- reply
1. 3.46
2. 3.04
